- assayRemarks: Solubility of WHI-07
- Assay type: physicochemical
- assaySetup: oil or lipid, thermodynamic from solid; in Captex® 300, ambient temperature, 2 hours, n = 3
reportedMetric: solubility at 2 h (mg/mL)

- compound: "COC(=O)C(C)NP(=O)(OC[C@H]1O[C@@H](N2C(=O)NC(=O)C(C)(Br)C2OC)CC1N=[N+]=[N-])Oc1ccc(Br)cc1 (mixture of isomers)"
  reportedMetric: "solubility at 2 h"
  readingUnit: "mg/mL"
  quantitativeReadout: 40.6

* * *

- assayRemarks: Solubility of WHI-07
- Type: physicochemical
- assaySetup: organic solvent or mixture, thermodynamic from solid; in PEG300, ambient temperature, 2 hours, n = 3

- compound: "COC(=O)C(C)NP(=O)(OC[C@H]1O[C@@H](N2C(=O)NC(=O)C(C)(Br)C2OC)CC1N=[N+]=[N-])Oc1ccc(Br)cc1 (mixture of isomers) [WHI-07]"
  solubility at 2 h: "132 mg/mL"
